# TARGET ENTITY: hNLRP3 (Homo sapiens)
# Construct: THP-1 cells were purchased from the American Type Culture Collection
# Sequence (Q96P20 whole entry): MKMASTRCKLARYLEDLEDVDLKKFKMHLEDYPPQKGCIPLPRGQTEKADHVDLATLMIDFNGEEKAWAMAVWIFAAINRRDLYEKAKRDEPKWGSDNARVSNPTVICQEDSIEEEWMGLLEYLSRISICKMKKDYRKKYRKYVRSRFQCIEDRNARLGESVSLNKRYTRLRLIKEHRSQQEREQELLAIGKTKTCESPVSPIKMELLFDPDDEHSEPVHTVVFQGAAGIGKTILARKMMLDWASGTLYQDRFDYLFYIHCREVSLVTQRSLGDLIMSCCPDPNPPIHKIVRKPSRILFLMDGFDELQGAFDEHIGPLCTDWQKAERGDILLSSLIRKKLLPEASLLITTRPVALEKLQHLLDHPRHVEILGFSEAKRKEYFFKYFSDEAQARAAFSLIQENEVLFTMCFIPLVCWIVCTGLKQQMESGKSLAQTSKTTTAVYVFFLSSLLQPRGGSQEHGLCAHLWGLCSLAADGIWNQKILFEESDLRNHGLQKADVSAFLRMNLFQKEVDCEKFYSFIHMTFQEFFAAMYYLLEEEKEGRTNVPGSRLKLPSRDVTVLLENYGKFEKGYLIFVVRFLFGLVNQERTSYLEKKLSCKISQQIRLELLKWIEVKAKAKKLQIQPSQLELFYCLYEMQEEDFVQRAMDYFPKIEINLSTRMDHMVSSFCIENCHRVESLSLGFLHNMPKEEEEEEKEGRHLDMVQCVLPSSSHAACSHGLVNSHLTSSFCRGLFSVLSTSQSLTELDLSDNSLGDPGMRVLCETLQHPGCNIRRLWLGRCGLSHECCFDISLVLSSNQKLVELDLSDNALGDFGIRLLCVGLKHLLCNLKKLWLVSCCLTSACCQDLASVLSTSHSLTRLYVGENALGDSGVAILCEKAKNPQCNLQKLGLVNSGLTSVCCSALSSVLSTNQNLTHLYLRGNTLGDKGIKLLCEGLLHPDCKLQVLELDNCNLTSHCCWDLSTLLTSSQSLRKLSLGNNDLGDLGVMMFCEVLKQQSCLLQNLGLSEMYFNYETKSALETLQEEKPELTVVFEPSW
# METHOD NOTES: Measurement of IL-1β production in PMA-differentiated THP-1 cells (hNLRP3 agonist; ELISA, alternative and hTRF procedures)
ASSAY READOUT: log10(EC50) (log10 of the value in nM)
Heads up: the numbers are on a log10 scale; they represent EC50 in nM.

Here's what some known entries look like.
molecule CCN(Cc1nc2c(N)nc3cc(Cl)ccc3c2n1CCCC(=O)OC)C(C)=O [Compound 219] , log10(EC50) observed: 3.30

molecule COc1ccc(Cn2c(CN3C(=O)OCC3COCc3ccccc3)nc3c(N)nc4cc(-c5cc[nH]n5)ccc4c32)cc1 (centres unmarked) [Compound 404] , log10(EC50) observed: 3.40

molecule CCN(Cc1nc2c(N)nc3cc(-c4cc[nH]n4)ccc3c2[nH]1)C(=O)NC [Compound 128] , log10(EC50) observed: 3.46

molecule CCN(Cc1nc2c(N)nc3ccccc3c2[nH]1)C(C)=O [Compound 176] , log10(EC50) observed: 4.41

molecule CCN(Cc1nc2c(N)nc3cc(-c4cc[nH]n4)ccc3c2[nH]1)C(=O)c1ccccc1 [Compound 126] , log10(EC50) observed: 3.32

New cases:
molecule CCC(=O)N(CC)Cc1nc2c(N)nc3cc(-c4cccs4)ccc3c2n1CC [Compound 480] , log10(EC50) observed: 3.28

molecule CC(C)NCc1nc2c(N)nc3cc(-c4cc[nH]n4)ccc3c2[nH]1 [Compound 421] , log10(EC50) observed: 2.38

molecule CCNCc1nc2c(N)nc3cc(-c4cccs4)ccc3c2n1CCO [Compound 471] , log10(EC50) observed: 3.08
